# Tested on: NCI-H226 lung
# procedure details: NCI tumour cell line growth inhibition, 48 h; in the data active = GI50 below about 0.43 µM; inactive = the rest
Permitted responses: active, inactive

Input line: Write down the call the test reported for this compound. Item: Cc1nc(Nc2ccc(F)c(Cl)c2)sc1C(=O)O
Output line: inactive

Input line: Then this compound: COC[C@H]1OC(=O)c2coc3c2[C@@]1(C)C1=C(C3=O)[C@@H]2CCC(=O)[C@@]2(C)C[C@H]1OC(C)=O
Output line: inactive

Input line: Note, next up: CN1CCN(Cc2ccc(NC(=O)c3[nH]ncc3Nc3ncnc4c3CCC4)cc2)CC1
Output line: inactive

Input line: Could you do the same for Cc1ccc(C(=O)N/N=C/c2cccc(Oc3ccccc3)c2)cn1 , please?
Output line: inactive

Input line: Then what about the compound CO/N=C1/NC(=O)/C(=C/c2ccc3ncccc3c2)S1 ?
Output line: inactive

Input line: Okay, and Cc1ccc(NS(=O)(=O)c2cc(C)ccc2C)cc1 ?
Output line: inactive

Input line: Next compound up: COc1cc2cnc3c(c2cc1OC)Cc1cc2c(cc1-3)OCO2
Output line: inactive

Input line: Try this compound next: COc1ccc(/C=C(\C#N)c2cc(OC)c3c(c2)OCO3)cc1
Output line: active

Input line: Repeat for the following compound: O=C1C(Cl)=C(N2CCOCC2)C(=O)c2ccccc21
Output line: inactive

Input line: Also check Cc1cc(-c2nc3ccc(O)cc3s2)ccc1N
Output line: inactive

Input line: Do the same for Cn1c2ccccc2c2nnc(N/N=C/c3ccccn3)nc21 please
Output line: active

Input line: Can you handle COc1ccc(C(=O)/C=C/c2cc(C(=O)c3cc(OC)c(OC)c(OC)c3)ccc2OC)cc1 next?
Output line: inactive

Input line: Next up: O=c1[nH]nc2c3c(cccc13)NC(CN1Cc3ccccc3C1)=N2
Output line: inactive

---

Kindly supply the reported TGI values for the records listed here.
# Tested on: HT29 colon
# procedure details: NCI tumour cell line growth inhibition, 48 h
*1 amine or outer side, *2 acyl side, *3 side chain or, on linkers, in order; H or OH if unused. Where a SMILES comes first, the peptide text is derived from it. Bridges are numbered along the chain shown (N, C = ends). [ ]: non-standard residue; d: D form. The star is where a group is joined. Phe(3-Me) = Cc1cccc(C[C@H](N)C(=O)O)c1; NH(4-Cl-2-F-phenyl) = Fc1cc(Cl)ccc1N*; Pro(4R-Me) = C[C@H]1CN[C@H](C(=O)O)C1; Hyp = O=C(O)[C@@H]1C[C@@H](O)CN1; aThr = C[C@H](O)[C@H](N)C(=O)O; Pip = O=C(O)[C@@H]1CCCCN1; CO = O=C([*:1])[*:2]
Please state the figure in µM; there is no need to write the unit.

Input line: For O=C(CNC(=O)c1cccc2ccccc12)Nc1ccccc1Oc1ccccc1 , what is its reported TGI?
Output line: 1.07

Input line: Lookup Cc1nn2c(/C=C3/C(=O)Nc4ccc(Cl)cc43)c(-c3ccccc3)nc2s1
Output line: 13.9

Input line: Then what about the molecule COc1ccc(/C=N/n2c(Cc3ccc(Cl)cc3)n[nH]c2=O)cc1 ?
Output line: 28.2

Input line: Another molecule: CCOC(=O)C#Cc1ccc(C#CC(=O)OCC)cc1
Output line: 5.27

Input line: Consider next the molecule c1ccc2c(Cc3c[nH]c4ccccc34)c[nH]c2c1 in the same way.
Output line: 30.2

Input line: One more molecule: Cc1cccc(C[C@H](NC(=O)Nc2ccc(Cl)cc2F)C(=O)N[C@@H]2C(=O)N3C[C@H](O)C[C@H]3C(=O)N3CCCC[C@H]3C(=O)N[C@@H](C)C(=O)N3C[C@H](C)C[C@H]3C(=O)O[C@H]2C)c1 ({NH(4-Cl-2-F-phenyl)-CO}-[Phe(3-Me)][aThr][Hyp][Pip]A[Pro(4R-Me)]; ester 2-C)
Output line: 3.06
